- EXPERIMENTAL PROTOCOL: qHTS assay to identify small molecule agonists of the constitutive androstane receptor (CAR) signaling pathway - cell viability counter screen (AID 1224836); note: nearly all actives have a fitted effect of over 45% in size
- STATED CONDITIONS: HepG2-CYP2B6-hCAR viability, CellTiter-Fluor, 23 h, PK11195 added to every well; series mostly up to 92.4 µM
Inconclusive results are not listed. Active and inactive are the calls of the source. Calls come from the whole dose curve; as a rule, active = well fitted cell-killing curve with a large enough effect in the repeat runs; inconclusive = weak or mixed curves, or effect the other way; inactive = flat fitted curve, though single readings scatter.
MEASUREMENT NAME: outcome

SAMPLE SMILES | MEASURED RESULT
CNC(=O)Oc1cc(C)c(SC)c(C)c1 | inactive
COc1ccc(C(c2ccc(OC)cc2)C(Cl)(Cl)Cl)cc1 | inactive
Clc1ccccc1-c1ccccc1Cl | inactive
Oc1c(I)cc(I)cc1I | inactive

====

- TARGET DESC: Acetylcholinesterase (Homo sapiens) (UniProt P22303)
- Sequence (P22303 whole entry, looked up): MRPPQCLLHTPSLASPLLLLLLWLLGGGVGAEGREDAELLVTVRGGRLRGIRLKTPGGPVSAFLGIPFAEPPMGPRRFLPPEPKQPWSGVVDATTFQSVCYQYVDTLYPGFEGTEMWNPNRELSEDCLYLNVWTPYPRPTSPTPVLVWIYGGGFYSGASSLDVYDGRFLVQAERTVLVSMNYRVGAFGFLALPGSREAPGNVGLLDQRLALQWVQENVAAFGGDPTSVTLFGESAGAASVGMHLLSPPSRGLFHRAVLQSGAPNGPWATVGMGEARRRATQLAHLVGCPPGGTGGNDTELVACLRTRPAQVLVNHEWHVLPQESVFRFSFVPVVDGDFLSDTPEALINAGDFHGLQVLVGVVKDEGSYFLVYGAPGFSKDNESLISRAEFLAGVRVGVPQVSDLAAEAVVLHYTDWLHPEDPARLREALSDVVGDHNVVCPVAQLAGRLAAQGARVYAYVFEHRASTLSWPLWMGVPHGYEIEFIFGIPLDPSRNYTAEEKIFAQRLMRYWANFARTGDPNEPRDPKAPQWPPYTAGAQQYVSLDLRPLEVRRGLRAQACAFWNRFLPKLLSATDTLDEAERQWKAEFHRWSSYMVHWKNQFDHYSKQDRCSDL
- EXPERIMENTAL PROTOCOL: Acetylcholinesterase (AChE) small molecule antagonists: enzyme-based qHTS assay with human liver microsomes (AID 1347399); note: nearly all actives have a fitted effect of over 60% in size
- STATED CONDITIONS: qHTS inhibition; series mostly up to 115 µM
Active and inactive are the calls of the source. The call rests on the fitted dose curve.
MEASUREMENT NAME: outcome

SAMPLE SMILES | MEASURED RESULT
NCCOCCO | inactive
O=C1[C@@H]2[C@H]3CC[C@H](C3)[C@@H]2C(=O)N1CCCCN1CCN(c2ncccn2)CC1 | inactive
Nc1cc(Cl)c([N+](=O)[O-])cc1O | inactive

====

- TARGET DESC: Cytochrome P450 2C9 (Homo sapiens)
- EXPERIMENTAL PROTOCOL: Cytochrome P450 Family 2 Subfamily C Member 9 (CYP2C9) small molecule antagonists: luciferase reporter qHTS assay (AID 1671198); note: nearly all actives have a fitted effect of over 50% in size
- STATED CONDITIONS: P450-Glo CYP2C9 enzyme assay, luciferin luminescence; series mostly up to 115 µM
Records with an inconclusive call do not appear. Calls of active or inactive are those of the source. The call rests on the fitted dose curve; in most records, active means well fitted inhibition curve with a large enough effect in the repeat runs; inconclusive means weak or mixed curves; inactive means no such curve, though single readings can be large or run the other way.
Tick one outcome: yes (1) for active, no (0) for inactive

Q. # lookup: test call for Nc1ccc([N+](=O)[O-])cc1
A. yes (1)

Q. # lookup: test call for N#Cc1cc([N+](=O)[O-])ccc1N
A. no (0)

Q. # lookup: test call for ClC(Cl)=C(c1ccc(Cl)cc1)c1ccccc1Cl
A. yes (1)

Q. # lookup: test call for COc1ccc(C(c2ccc(OC)cc2)C(Cl)(Cl)Cl)cc1
A. yes (1)

Q. # lookup: test call for CCN(CC)C(=O)Cl
A. no (0)

Q. # lookup: test call for Oc1c(I)cc(I)cc1I
A. yes (1)

====

- TARGET DESC: Acetylcholinesterase (Homo sapiens)
- EXPERIMENTAL PROTOCOL: Acetylcholinesterase (AChE) small molecule antagonists: enzyme-based qHTS assay with human liver microsomes (AID 1347399); note: nearly all actives have a fitted effect of over 60% in size
- STATED CONDITIONS: qHTS inhibition; series mostly up to 115 µM
- Source text: National Center for Advancing Translational Sciences [NCATS] Division of Preclinical Innovation [DPI] U.S. Environmental Protection Agency [EPA] National Institutes of Environmental Health Sciences [NIEHS] National Toxicology Program [NTP] U.S. Food and Drug Administration [FDA] Acetylcholinesterase (AChE) is the primary cholinesterase in the body that hydrolyzes a key neurotransmitter, acetylcholine. Inhibition of AChE activity can lead to neurotoxicity. […]
Activity calls are given as the source filed them. The call rests on the fitted dose curve.

SAMPLE SMILES | TARGET DESC | outcome
Cc1oc(-c2ccccc2)nc1CCOc1ccc(C[C@H](Nc2ccccc2C(=O)c2ccccc2)C(=O)O)cc1 | Acetylcholinesterase (Homo sapiens) | inactive
COc1ccccc1O | Acetylcholinesterase (Homo sapiens) | inactive
C=C(C)C(=O)OCCCCCCCCCC | Acetylcholinesterase (Homo sapiens) | inactive
